Just for reference, patent US20190328788A1 is where these values come from.

TARGET OR TEST SYSTEM: T1, Growth and Differentiation Factor 15 (GDF15) (UniProt Q99988 197-308, limits assumed)
T1 construct: also called MIC-1; MIC1
T1 sequence (looked up): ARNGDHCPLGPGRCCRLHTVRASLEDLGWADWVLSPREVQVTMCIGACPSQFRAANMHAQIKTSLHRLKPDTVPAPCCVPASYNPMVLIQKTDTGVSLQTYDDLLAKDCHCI
TEST NAME: ELISA, peptide on streptavidin plate, ligand 100 ng/ml
Ends that are not written are not given here.
Criterion: ELISA OD450 strictly less than 0.4 OD450. Met: 1. Not met: 0.

BINDER	GROUP LABEL
VSGDYYPIIYFNDYWNLQKDYYPINESLASLPLRVSFC (also: biotinylated, site not given here, also called peptide 31; GT7) [CLPTM1 peptide fragment of SEQ ID NO: 38]	1
QNPPAQPAPNAWQVIKGVLFG (also: biotinylated, site not given here) [CLPTM1 peptide fragment of SEQ ID NO: 10]	1
GDYYPIIYFNDYWNLQKDYYG (also: biotinylated, site not given here, also called peptide 21) [CLPTM1 peptide fragment of SEQ ID NO: 28]	0
PLRVSFCPLSLWRWQLYAAQG (also: biotinylated, site not given here) [CLPTM1 peptide fragment of SEQ ID NO: 23]	1

Now look at this one.
Q: Take the binder LDQYVKFDAVSGDYYPIIYFG (also: biotinylated, site not given here, also called peptide 14) [CLPTM1 peptide fragment of SEQ ID NO: 21] and say whether its ELISA OD450 is less than 0.4 OD450.
A: 1
